Where these numbers come from: PubChem BioAssay

- ASSAY_OVERVIEW: probe aXIP binding to arrayed compounds – biochemical, NeuroSMM set, 635/667 nm fluorescence, primary screen (AID 1119);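 also: probe is the protein aXip251-270 applied at 1 µg/mL to compound-printed slides; binding of probe to printed compounds measured as 667 nm fluorescence plus signal to noise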
- PARTICULARS: small-molecule microarray, higher = more signal, called active from +8 up or from −8 down
VALUE_TYPE: composite Z-score
Numbers only.

Examples with their reported composite Z-score follow.
INSERT INTO assay_data (compound, endpoint_value) VALUES
  ('O=C1OCCC=C[C@H]2OC34C=CCN(c5ccc6ccccc6c5)C(=O)[C@H]3N(CCCO)C(=O)[C@@H]4C12 (some centres not stated)', 0.168),
  ('NC(=O)NCC#Cc1ccc2c(c1)[C@]1(C(=O)N2)[C@H](c2ccccc2OCCO)N2[C@H](c3ccccc3)[C@H](c3ccccc3)OC(=O)[C@H]2[C@@H]1C(=O)NC[C@H](O)c1ccccc1', -0.17),
  ('COC(=O)[C@@H]1N=C(c2ccc(OCCCO)cc2)O[C@@H]1C', -0.385),
  ('CO[C@H]1O[C@H](CO)[C@@H](OC(=O)CCc2ccccc2)[C@@H]2OC(=O)[C@@H](Cc3ccccc3)C/C=C/C[C@H](Cc3ccccc3)C(=O)O[C@@H]12', -0.0061);

# batch: return composite Z-score for each of the 3 compounds below
1. CC(C)(C)OC(=O)CC[C@@]1(C(=O)NCC(O)CO)N=C(c2ccc(OCCCO)cc2)O[C@@H]1c1ccccc1CN=[N+]=[N-] (some centres not stated)
2. C=C(COC)/C(=C/C[C@H](OC(=O)c1ccncc1)c1ccccc1OCCO)c1cc(C(=O)OC)ccc1OC
3. COCCOC(=O)N1C(=O)[C@@]2(c3ccccc31)[C@H](C(=O)NC[C@H](O)c1ccccc1)[C@H]1C(=O)O[C@H](c3ccccc3)[C@H](c3ccccc3)N1[C@@H]2c1ccc(O)cc1

Completion:
1: -0.0662; 2: 0.614; 3: 0.244

----------
- ASSAY_OVERVIEW: JC-1 mitochondrial signal, unstimulated MM1S myeloma – cell-based, JC-1 fluorescence, 24 h, 100 nL compound, profiling panel (AID 1170); also: test concentration not given here
- PARTICULARS: MM1S mitochondrial potential, higher = more signal
VALUE_TYPE: z-score
Numbers only.

INSERT INTO results (compound, endpoint_value) VALUES
  ('Cc1ccc(NN2C(C(O)c3c(F)cccc3Cl)C=CC3C(=O)N(C4CCCCC4)C(=O)C32)cc1 (centres undefined)', -1.04),
  ('COCCCNC(=O)[C@@]1(Sc2ccc(C)cc2)CC(=O)N(C2Cc3ccccc3C2)[C@@H]1c1ccc(CO)cc1', -1.59),
  ('CC[C@@H]1C=C(C(=O)O)[C@H](c2ccccc2)N1S(=O)(=O)c1ccc(C)cc1', -0.76),
  ('CCCCN1CC=CC23O[C@@H]4/C=C\CCC(C)OC(=O)C4[C@H]2C(=O)N(CCCO)[C@@H]3C1=O (some centres undefined)', 0.71),
  ('COc1cc2c(cc1O)C(c1cccs1)N(Cc1cc3c(cc1Br)OCO3)CC2 (centres undefined)', -0.488);

For each of the compounds below, state z-score.
1. C=C(COC)/C(=C/C[C@H](OC(=O)c1ccncc1)c1ccccc1OCCO)c1cc(C(=O)OC)ccc1OC
2. COC(=O)C1=CC(CCCO)=CC(c2ccc(CN3CCCC3)cc2)N(Cc2cccc(OC(F)(F)F)c2)C=C1C(=O)OC (centres undefined)
3. COc1cc2c(cc1O)C(C1CC1)N(C)CC2 (centres undefined)
4. COc1ccc([Si](C)(C)[C@H]2[C@H](CC(=O)N(CCO)Cc3ccccc3)O[C@@]3(C(=O)N(C)c4c(Br)cc(C)cc43)[C@@H]2C)cc1
5. COc1ccc(CCNC(=O)[C@@]2(c3ccc([N+](=O)[O-])cc3)CC(=O)N(C3CCCCC3)[C@@H]2c2ccc(CO)cc2)cc1
6. COCCOC(=O)N1C(=O)[C@@]2(c3cc(C#CC4(O)CCCCCC4)ccc31)[C@H](c1ccc(O)cc1)N1[C@H](c3ccccc3)[C@H](c3ccccc3)OC(=O)[C@H]1[C@@H]2C(=O)N1CCN(c2ncccn2)CC1
7. C=CCNC(=O)[C@@H]1[C@H]2C(=O)O[C@H](c3ccccc3)[C@H](c3ccccc3)N2[C@H](c2ccccc2OCCO)[C@@]12C(=O)Nc1ccc(C#CCCO)cc12

Completion:
[-0.159, 0.593, 1.87, -2.16, 0.954, -0.091, -0.608]

----------
Field: composite z-score. Provide a value for each of the compounds that follow.
- ASSAY_OVERVIEW: probe aEGFR binding to arrayed compounds – biochemical, biotinylated probe, 635/667 nm fluorescence, primary screen (AID 1097);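 also: probe is a biotinylated anti-EGFR antibody binding compounds printed on slides; score combines fluorescence near 667 nm and signal to noise of each spot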
- PARTICULARS: small-molecule microarray, higher = more signal
Answers are plain numbers.

// worked examples, composite z-score included
INSERT INTO assay_data (compound, value_type, endpoint_value) VALUES
  ('O=C(Cc1ccccc1)[C@H]1C2C=CCCC(c3ccccc3)=C2CN1Cc1ccccc1 (some centres undefined)', 'composite z-score', -0.0828),
  ('CC1CC/C=C\[C@H]2OC34C=CCN(C(C)(C)C)C(=O)[C@H]3N(CCCCCO)C(=O)[C@@H]4C2C(=O)O1 (some centres undefined)', 'composite z-score', -0.262),
  ('CC[C@@H]1C=C(C(=O)O)[C@H](c2ccc(C#N)cc2)N1S(=O)(=O)c1ccc(C)cc1', 'composite z-score', 0.122);

Please look at the following compound next.
Prompt: Please give the measured composite z-score for this compound: [N-]=[N+]=NCc1ccccc1C[C@@]1(C(N)=O)N=C(c2ccc(OCCCO)cc2)O[C@@H]1c1ccccc1
Completion: -0.108

----------
For each entry below, report its composite z-score value.
- Tested on: Neuregulin-1 EGF-like domain
- ASSAY_OVERVIEW: small molecules binding NRG1 EGF domain – biochemical, small-molecule microarray, 635 nm fluorescence, primary screen (AID 1081);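 also: binding of the protein to compounds printed on small-molecule microarray slides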
- PARTICULARS: higher = more signal
Answers are plain numbers.

Would you please look over these solved cases?
INSERT INTO measurements (compound, endpoint_value) VALUES
  ('CN(C)c1ccc(C(O)C2C=CC3C(=O)NC(=O)C3N2Nc2ccccn2)cc1 (stereo not drawn)', 1.41),
  ('C=C(C(=O)CC[C@H](OC(=O)c1ccccc1-c1ccccc1C(=O)O)c1cccc(OCCO)c1)C(C)C', 0.0799);

# batch size: 7; output composite z-score per entry
1. O=C(c1ccccc1)N1C(=O)[C@]2(Cc3ccccc31)N=C(c1ccc(OCCCO)cc1)O[C@@H]2c1ccccc1
2. CC(CO)N1C(=O)[C@@H]2[C@H]3C(=O)OCC=C[C@H]3OC23C=CCN(Cn2nnc4ccccc42)C(=O)[C@@H]13 (stereo partly drawn)
3. COc1ccc(CCNC(=O)[C@@]2(c3ccc([N+](=O)[O-])cc3)CC(=O)N(C3CCCCC3)[C@@H]2c2ccc(CO)cc2)cc1
4. COC(=O)[C@@]1(Cc2ccc(OC)cc2)[C@H]2c3cc(C(=O)N4CCCC4)n(CCO)c3C[C@H]2CN1C(=O)c1ccccc1
5. C=C(COC)C(=O)CC[C@@H](OC(C)=O)c1cccc(OCCO)c1
6. CC(C)(C)OC(=O)CC[C@@]1(C(=O)NCC(O)CO)N=C(c2ccc(OCCCO)cc2)O[C@@H]1c1ccccc1CN=[N+]=[N-] (stereo partly drawn)
7. [N-]=[N+]=NCc1ccccc1[C@@H]1OC(c2ccc(OCCCO)cc2)=N[C@]1(CCS(=O)(=O)c1ccccc1)C(=O)O

Completion:
[1.3, 0.694, 1.23, 0.764, 0.691, 1.48, 0.733]

Could I get composite z-score for every one of these entries?
1. C=CCC(OC(C)=O)[C@@H]1[C@@H](N(Cc2cccc3ccccc23)C(=O)Cc2ccc(OC)cc2)c2cc(OCCCO)ccc2N1C(=O)c1ccc(-c2ccccc2)cc1 (stereo partly drawn)
2. C[N+](C)(C)CCCCCCNC(=O)[C@@H]1C[C@@H]2C(=O)N3CCC[C@H]3C(=O)N2[C@@H]1c1ccc(O)cc1
3. [N-]=[N+]=Nc1ccccc1C[C@]1(C(=O)N2CCOCC2)COC(c2ccc(OCCCO)cc2)=N1
4. COC(=O)[C@@H]1N=C(c2ccc(OCCCO)cc2)O[C@@H]1C

Completion:
1: -0.359; 2: 1.34; 3: 1.19; 4: 0.155

----------
- ASSAY_TARGET: Torsin-1A-interacting protein 1 (Homo sapiens) (UniProt Q5JTV8)
- Sequence (Q5JTV8 whole entry, looked up): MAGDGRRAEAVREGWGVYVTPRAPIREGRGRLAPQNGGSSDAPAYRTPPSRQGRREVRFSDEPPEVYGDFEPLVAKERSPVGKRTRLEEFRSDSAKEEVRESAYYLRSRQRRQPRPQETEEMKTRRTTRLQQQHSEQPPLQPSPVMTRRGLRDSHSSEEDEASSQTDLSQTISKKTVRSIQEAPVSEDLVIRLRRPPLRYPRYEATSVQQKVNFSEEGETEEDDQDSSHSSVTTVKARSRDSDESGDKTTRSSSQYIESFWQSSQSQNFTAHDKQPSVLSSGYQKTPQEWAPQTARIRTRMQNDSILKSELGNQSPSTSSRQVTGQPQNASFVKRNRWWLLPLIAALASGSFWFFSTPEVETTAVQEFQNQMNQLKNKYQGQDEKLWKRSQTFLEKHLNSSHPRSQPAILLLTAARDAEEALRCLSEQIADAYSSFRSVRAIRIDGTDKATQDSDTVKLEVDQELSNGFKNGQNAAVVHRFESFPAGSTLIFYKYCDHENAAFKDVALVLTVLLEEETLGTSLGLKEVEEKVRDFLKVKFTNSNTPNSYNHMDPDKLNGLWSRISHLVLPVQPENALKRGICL
- ASSAY_OVERVIEW: compound microarray binding of lysate hLAP1 – cell lysate, small-molecule microarray, COS7 lysate, 635/667 nm fluorescence, primary screen (AID 1116)
- PARTICULARS: 635 nm fluorescence, higher = more signal
# if value of composite z-score reaches 0.8, tag 1.0; if it stays below, tag 0.0

INSERT INTO assay_data (compound, assay_target, class_label) VALUES
  ('O=C1OCCC/C=C\[C@H]2OC34C=CCN(c5ccc6ccccc6c5)C(=O)[C@H]3N(CCO)C(=O)[C@@H]4C12 (some centres not stated)', 'Torsin-1A-interacting protein 1 (Homo sapiens) (UniProt Q5JTV8)', 0.0),
  ('CCCCC[C@H]1OC[C@@]23C=C(Br)[C@@H](CC12)[C@@]1(CO1)C3=O (some centres not stated)', 'Torsin-1A-interacting protein 1 (Homo sapiens) (UniProt Q5JTV8)', 0.0),
  ('[N-]=[N+]=Nc1ccccc1C[C@@]1(C(N)=O)N=C(c2ccc(OCCCO)cc2)O[C@@H]1c1ccccc1N=[N+]=[N-]', 'Torsin-1A-interacting protein 1 (Homo sapiens) (UniProt Q5JTV8)', 1.0);

Prompt: Answer whether composite z-score of [N-]=[N+]=Nc1ccccc1C[C@]1(C(=O)N2CCOCC2)COC(c2ccc(OCCCO)cc2)=N1 is greater than or equal to 0.8.
Completion: 1.0

Prompt: Threshold query (composite z-score >= 0.8) on COc1ccc(CCNC(=O)[C@@]2(c3ccc([N+](=O)[O-])cc3)CC(=O)N(C3CCCCC3)[C@@H]2c2ccc(CO)cc2)cc1
Completion: 0.0

Prompt: Is it the case that COC(=O)[C@@]1(Cc2ccc(F)cc2)[C@H]2c3cc(C(=O)N(C)C)n(Cc4ccc(OC(F)(F)F)cc4)c3C[C@H]2CN1C(=O)c1ccccc1 has composite z-score reaching or exceeding 0.8?
Completion: 0.0

Prompt: Could you verify whether the entry COCCOC(=O)N1C(=O)[C@@]2(c3cc(C#CCC(C(=O)OC)C(=O)OC)ccc31)[C@H](c1ccc(OCCO)cc1)N1[C@H](c3ccccc3)[C@H](c3ccccc3)OC(=O)[C@H]1[C@@H]2C(=O)N1CCc2cc(OC)c(OC)cc2C1 shows composite z-score of no less than 0.8?
Completion: 1.0
